Listed here are compounds together with their documented IC50.
molecular target: Mushroom tyrosinase (EC 1.14.18.1) (Agaricus bisporus); construct: purchased Sigma-Aldrich; test: Mushroom tyrosinase inhibition assay (L-tyrosine or L-DOPA as substrate); type: biochemical; settings: L-tyrosine as substrate (monophenolase); mean ± SEM of triplicate; read-out: IC50 (μM) a

>  <TEST_SMILES>
COc1cc(/C=C/C(=O)c2ccco2)ccc1O

>  <ASSAYED_SYSTEM>
Mushroom tyrosinase (EC 1.14.18.1) (Agaricus bisporus)

>  <QUALIFIER>
>

>  <IC50 [µM]>
200

$$$$
>  <TEST_SMILES>
COc1ccc(/C=C/C(=O)c2ccco2)cc1O

>  <ASSAYED_SYSTEM>
Mushroom tyrosinase (EC 1.14.18.1) (Agaricus bisporus)

>  <QUALIFIER>
=

>  <IC50 [µM]>
13.6

$$$$
>  <TEST_SMILES>
O=C(/C=C/c1ccc(O)cc1)c1ccco1

>  <ASSAYED_SYSTEM>
Mushroom tyrosinase (EC 1.14.18.1) (Agaricus bisporus)

>  <QUALIFIER>
=

>  <IC50 [µM]>
28.9

$$$$
>  <TEST_SMILES>
O=C(/C=C/c1ccc(O)c(O)c1)c1ccco1

>  <ASSAYED_SYSTEM>
Mushroom tyrosinase (EC 1.14.18.1) (Agaricus bisporus)

>  <QUALIFIER>
=

>  <IC50 [µM]>
84.9

$$$$
>  <TEST_SMILES>
O=C(/C=C/c1ccc(O)c(Br)c1)c1ccco1

>  <ASSAYED_SYSTEM>
Mushroom tyrosinase (EC 1.14.18.1) (Agaricus bisporus)

>  <QUALIFIER>
=

>  <IC50 [µM]>
51.2

$$$$
>  <TEST_SMILES>
O=C(/C=C/c1cc(Br)c(O)c(Br)c1)c1ccco1

>  <ASSAYED_SYSTEM>
Mushroom tyrosinase (EC 1.14.18.1) (Agaricus bisporus)

>  <QUALIFIER>
>

>  <IC50 [µM]>
200

$$$$
>  <TEST_SMILES>
COc1cc(/C=C/C(=O)c2ccco2)cc(OC)c1O

>  <ASSAYED_SYSTEM>
Mushroom tyrosinase (EC 1.14.18.1) (Agaricus bisporus)

>  <QUALIFIER>
>

>  <IC50 [µM]>
200

$$$$

---

target: Mushroom tyrosinase (EC 1.14.18.1) (Agaricus bisporus); construct: purchased Sigma-Aldrich; test: Mushroom tyrosinase inhibition assay (L-tyrosine or L-DOPA as substrate); type: biochemical; conditions: L-DOPA as substrate (diphenolase); mean ± SEM of triplicate; read-out: IC50 (μM) b
RESULT_TYPE: IC50 (µM)

>  <MOLECULE>
O=C(/C=C/c1ccc(O)cc1)c1ccco1 [Compound 1]

>  <RESULT_TYPE>
IC50

>  <QUALIFIER>
>

>  <OBSERVED_RESULT>
200

$$$$
>  <MOLECULE>
COc1cc(/C=C/C(=O)c2ccco2)ccc1O [Compound 3]

>  <RESULT_TYPE>
IC50

>  <QUALIFIER>
>

>  <OBSERVED_RESULT>
200

$$$$
>  <MOLECULE>
COc1cc(/C=C/C(=O)c2ccco2)cc(OC)c1O [Compound 5]

>  <RESULT_TYPE>
IC50

>  <QUALIFIER>
>

>  <OBSERVED_RESULT>
200

$$$$
>  <MOLECULE>
O=C(/C=C/c1ccc(O)c(Br)c1)c1ccco1 [Compound 6]

>  <RESULT_TYPE>
IC50

>  <QUALIFIER>
>

>  <OBSERVED_RESULT>
200

$$$$
>  <MOLECULE>
O=C(/C=C/c1cc(Br)c(O)c(Br)c1)c1ccco1 [Compound 7]

>  <RESULT_TYPE>
IC50

>  <QUALIFIER>
=

>  <OBSERVED_RESULT>
27.2

$$$$
>  <MOLECULE>
O=C(/C=C/c1ccc(O)c(O)c1)c1ccco1 [Compound 2]

>  <RESULT_TYPE>
IC50

>  <QUALIFIER>
=

>  <OBSERVED_RESULT>
24.9

$$$$
>  <MOLECULE>
COc1ccc(/C=C/C(=O)c2ccco2)cc1O [Compound 4]

>  <RESULT_TYPE>
IC50

>  <QUALIFIER>
=

>  <OBSERVED_RESULT>
37.4

$$$$

---

target: Mushroom tyrosinase (EC 1.14.18.1) (Agaricus bisporus, UniProt C7FF04); construct: purchased Sigma-Aldrich; assay: Mushroom tyrosinase inhibition assay (L-tyrosine or L-DOPA as substrate); type: biochemical; conditions: IC50 (μM) b, L-DOPA as substrate (diphenolase); mean ± SEM of triplicate
Sequence (C7FF04 1-392): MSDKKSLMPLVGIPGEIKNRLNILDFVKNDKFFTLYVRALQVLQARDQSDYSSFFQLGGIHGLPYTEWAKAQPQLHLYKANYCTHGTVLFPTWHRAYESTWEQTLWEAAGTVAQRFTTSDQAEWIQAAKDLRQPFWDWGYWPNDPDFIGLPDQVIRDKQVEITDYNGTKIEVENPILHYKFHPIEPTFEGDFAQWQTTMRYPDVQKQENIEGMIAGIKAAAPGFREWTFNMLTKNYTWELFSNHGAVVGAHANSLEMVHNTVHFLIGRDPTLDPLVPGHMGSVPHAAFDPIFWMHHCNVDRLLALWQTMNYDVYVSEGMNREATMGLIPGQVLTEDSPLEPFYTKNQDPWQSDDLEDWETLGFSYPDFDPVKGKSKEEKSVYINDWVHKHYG
RESULT_TYPE: IC50

>  <COMPOUND>
O=C(O)c1ccccc1C(=O)O [Phthalic acid, reference compound]

>  <OBSERVED_RESULT>
> 200 µM

$$$$
>  <COMPOUND>
O=C(O)/C=C/c1ccccc1 [Cinnamic acid, reference compound]

>  <OBSERVED_RESULT>
> 200 µM

$$$$

---

molecular target: Mushroom tyrosinase (EC 1.14.18.1) (Agaricus bisporus, UniProt C7FF04); construct: purchased Sigma-Aldrich; experiment: Mushroom tyrosinase inhibition assay (L-tyrosine or L-DOPA as substrate); format: biochemical

>  <MOLECULE>
O=C(O)c1ccccc1C(=O)O [Phthalic acid, reference compound]

>  <IC50>
> 200 µM

$$$$
>  <MOLECULE>
O=C(O)/C=C/c1ccccc1 [Cinnamic acid, reference compound]

>  <IC50>
> 200 µM

$$$$

Origin of values: paper PMC7700175
